// values below are reported GI50
# Tested on: OVCAR-8
# protocol: NCI tumour cell line growth inhibition, 48 h
The source made the active and inactive calls. Cut-off read from the data, not from the text of the source: active = GI50 up to about 1.1 µM and inactive = higher.

molecule | GI50
O=[N+]([O-])c1ccc2occ3c2c1CCC3 | > 100 µM (inactive)
CC(=O)O[C@@H]1[C@H](OC2CCCCC2(c2ccccc2)c2ccccc2)O[N+]([O-])=CC12CCCCC2 (stereo not given in full) | 25.5 µM (inactive)
Cc1nc2c(C)c3c([nH]c4ccc(Cl)cc43)c(C)c2c(O)c1C | 4.88 µM (inactive)
CN(C)CCNC(=O)c1cccc(CO)c1[N+](=O)[O-] | > 100 µM (inactive)
COC(=O)CC1CC2(C(=O)OC)c3[nH]c4ccccc4c3CCN2C1=O (stereo not given) | > 100 µM (inactive)

Every entry's value here was drawn from ChEMBL document CHEMBL1201862.
